Assay: Natural pH, solubility and precipitation of cysteine solutions (general statements)
Assay type: physicochemical
Details: base form; read-out: Solubility of cysteine in its base form
measured metric: solubility

(Q) Which solubility value belongs to N[C@@H](CS)C(=O)O ?
(A) ≤ 50 mg/mL
